meta.source: patent US9181277B2

Measured IC50 accompanies every entry in the list below.
- tgt: EGFR Kinase (Homo sapiens)
- Sequence (P00533 25-1210): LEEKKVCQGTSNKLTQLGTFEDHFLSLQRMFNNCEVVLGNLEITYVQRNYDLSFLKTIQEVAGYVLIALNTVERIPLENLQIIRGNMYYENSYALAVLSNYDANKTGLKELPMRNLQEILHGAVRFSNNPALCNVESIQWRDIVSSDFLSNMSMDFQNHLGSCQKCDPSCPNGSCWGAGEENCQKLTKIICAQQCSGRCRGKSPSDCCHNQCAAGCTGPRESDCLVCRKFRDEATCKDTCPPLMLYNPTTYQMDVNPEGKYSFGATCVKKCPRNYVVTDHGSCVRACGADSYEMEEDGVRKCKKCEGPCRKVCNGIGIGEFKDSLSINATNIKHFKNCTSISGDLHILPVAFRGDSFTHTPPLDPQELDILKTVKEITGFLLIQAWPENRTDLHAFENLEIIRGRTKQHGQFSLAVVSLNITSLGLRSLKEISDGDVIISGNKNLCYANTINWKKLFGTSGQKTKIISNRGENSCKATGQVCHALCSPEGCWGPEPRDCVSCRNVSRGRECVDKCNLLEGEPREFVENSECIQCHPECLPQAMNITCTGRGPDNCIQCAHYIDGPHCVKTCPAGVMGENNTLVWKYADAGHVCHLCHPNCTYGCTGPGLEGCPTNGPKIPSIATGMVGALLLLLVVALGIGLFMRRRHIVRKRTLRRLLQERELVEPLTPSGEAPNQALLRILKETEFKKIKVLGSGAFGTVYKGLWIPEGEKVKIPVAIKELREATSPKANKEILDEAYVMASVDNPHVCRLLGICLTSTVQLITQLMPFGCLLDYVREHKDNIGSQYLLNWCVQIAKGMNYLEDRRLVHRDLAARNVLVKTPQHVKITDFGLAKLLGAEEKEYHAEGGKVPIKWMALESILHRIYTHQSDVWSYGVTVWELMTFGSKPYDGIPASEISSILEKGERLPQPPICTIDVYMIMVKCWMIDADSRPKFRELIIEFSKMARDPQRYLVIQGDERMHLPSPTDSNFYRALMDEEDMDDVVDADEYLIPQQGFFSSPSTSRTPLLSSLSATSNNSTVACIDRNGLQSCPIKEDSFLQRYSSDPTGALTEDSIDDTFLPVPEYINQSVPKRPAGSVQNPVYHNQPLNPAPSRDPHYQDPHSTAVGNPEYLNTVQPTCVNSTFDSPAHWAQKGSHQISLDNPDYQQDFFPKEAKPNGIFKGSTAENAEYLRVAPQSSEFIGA
- procedure.details: EGFR inhibitory activity test (HTRF kinEASE STK S1 kinase assay)
- Type: biochemical
- experimental.context: replicate wells, read-out: IC50(nM), Inhibitory Activity of Compounds on EGFR Kinase

Recorded IC50, per entry:
compound	IC50
C#Cc1cccc(Nc2ncnc3cc(OC)c(OCCCN4CC5OCCOC5C4)cc23)c1 (centres unmarked)	0.001 to 0.1 nM
COc1cc2ncnc(Nc3ccc(F)c(Cl)c3)c2cc1OCCCN1CCn2cnnc2C1	0.101 to 1 nM

Q: Let me know recorded IC50 for COc1cc2ncnc(Nc3ccc(F)cc3)c2cc1OCCCN1CC2CNCC2C1 (centres unmarked) , thanks.
Ans: 0.001 to 0.1 nM

Q: Give the value of IC50 reported for the following: COc1cc2ncnc(Nc3ccc(F)cc3)c2cc1OCCCN1CCn2cnnc2C1
Ans: 1 to 10 nM

Q: Consider the compound COc1cc2ncnc(Nc3ccc(F)c(Cl)c3)c2cc1OCCCN1CCC2COCC2C1 (centres unmarked) and give its recorded IC50.
Ans: 1 to 10 nM

Q: Fill in reported IC50 for this entry: COc1cc2ncnc(Nc3ccc(F)c(Cl)c3)c2cc1OCCCN1CCC2CNCC21 (centres unmarked)
Ans: 0.001 to 0.1 nM

Q: Hello, please tell me recorded IC50 for this one: COc1cc2ncnc(Nc3ccc(F)c(Cl)c3)c2cc1OCCCN1C[C@@H]2OCCO[C@H]2C1
Ans: 0.001 to 0.1 nM

Q: Provide measured IC50 value, entry: COc1cc2ncnc(Nc3ccc(F)c(Cl)c3)c2cc1OCCCN1CC2CCOC(=O)C2C1 (centres unmarked)
Ans: 0.001 to 0.1 nM
